Reference source for all entries: patent US20240309103A1

target: T1, hNPR1-mFc:hBNP complex (human, UniProt P16860 103-134); assay: SPR, mAb captured, 37C
T1 construct: also called human NPR1 complexed to BNP
Answer No if kon is under 50000 M⁻¹ s⁻¹, and Yes if it is 50000 M⁻¹ s⁻¹ or more.

# binder, discrete_label
records = [
    ("mAb25479 (antibody, human IgG4, V domains shown) VH: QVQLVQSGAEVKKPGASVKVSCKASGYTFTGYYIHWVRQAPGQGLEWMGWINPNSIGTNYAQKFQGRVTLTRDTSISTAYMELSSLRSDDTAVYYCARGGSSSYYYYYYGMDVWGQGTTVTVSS VL: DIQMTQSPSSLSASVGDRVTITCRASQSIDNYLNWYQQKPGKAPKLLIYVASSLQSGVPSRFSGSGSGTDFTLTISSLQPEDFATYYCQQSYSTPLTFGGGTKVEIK", "No"),
    ("mAb25491 (antibody, human IgG4, V domains shown) VH: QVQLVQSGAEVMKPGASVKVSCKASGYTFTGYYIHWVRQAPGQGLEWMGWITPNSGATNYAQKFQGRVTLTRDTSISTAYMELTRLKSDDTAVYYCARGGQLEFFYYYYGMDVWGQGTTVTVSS VL: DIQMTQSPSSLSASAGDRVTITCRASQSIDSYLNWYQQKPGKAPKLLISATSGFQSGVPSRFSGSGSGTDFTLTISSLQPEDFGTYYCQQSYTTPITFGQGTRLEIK", "Yes"),
    ("mAb22809 (antibody, human IgG4, V domains shown) VH: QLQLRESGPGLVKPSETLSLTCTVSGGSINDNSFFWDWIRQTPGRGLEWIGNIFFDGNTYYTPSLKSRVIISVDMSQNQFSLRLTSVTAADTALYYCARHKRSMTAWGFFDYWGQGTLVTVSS VL: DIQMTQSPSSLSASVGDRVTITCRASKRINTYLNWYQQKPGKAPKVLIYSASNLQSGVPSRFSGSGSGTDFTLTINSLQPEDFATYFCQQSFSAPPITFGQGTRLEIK", "No"),
]

Turning now to a further record.
Enquiry: Check this binder for kon at or above 50000 M⁻¹ s⁻¹: mAb22035 (antibody, human IgG4, V domains shown) VH: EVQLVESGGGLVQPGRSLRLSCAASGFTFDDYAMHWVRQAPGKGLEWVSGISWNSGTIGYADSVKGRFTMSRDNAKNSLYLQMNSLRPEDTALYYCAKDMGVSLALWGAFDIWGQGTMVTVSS VL: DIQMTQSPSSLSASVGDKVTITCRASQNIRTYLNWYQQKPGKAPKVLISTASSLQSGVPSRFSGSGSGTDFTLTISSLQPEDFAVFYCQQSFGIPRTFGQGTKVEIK
Return: Yes
